// provenance: patent US20130273029A1

Listed binders paired with reported BT474 pHER3 % inhibition
target: Human HER3, endogenous, on human cancer cell lines (SK-Br-3, MCF7, BT-474) (human, UniProt P21860 20-1342); assay: cell-based or functional assay
Sequence (P21860 20-1342): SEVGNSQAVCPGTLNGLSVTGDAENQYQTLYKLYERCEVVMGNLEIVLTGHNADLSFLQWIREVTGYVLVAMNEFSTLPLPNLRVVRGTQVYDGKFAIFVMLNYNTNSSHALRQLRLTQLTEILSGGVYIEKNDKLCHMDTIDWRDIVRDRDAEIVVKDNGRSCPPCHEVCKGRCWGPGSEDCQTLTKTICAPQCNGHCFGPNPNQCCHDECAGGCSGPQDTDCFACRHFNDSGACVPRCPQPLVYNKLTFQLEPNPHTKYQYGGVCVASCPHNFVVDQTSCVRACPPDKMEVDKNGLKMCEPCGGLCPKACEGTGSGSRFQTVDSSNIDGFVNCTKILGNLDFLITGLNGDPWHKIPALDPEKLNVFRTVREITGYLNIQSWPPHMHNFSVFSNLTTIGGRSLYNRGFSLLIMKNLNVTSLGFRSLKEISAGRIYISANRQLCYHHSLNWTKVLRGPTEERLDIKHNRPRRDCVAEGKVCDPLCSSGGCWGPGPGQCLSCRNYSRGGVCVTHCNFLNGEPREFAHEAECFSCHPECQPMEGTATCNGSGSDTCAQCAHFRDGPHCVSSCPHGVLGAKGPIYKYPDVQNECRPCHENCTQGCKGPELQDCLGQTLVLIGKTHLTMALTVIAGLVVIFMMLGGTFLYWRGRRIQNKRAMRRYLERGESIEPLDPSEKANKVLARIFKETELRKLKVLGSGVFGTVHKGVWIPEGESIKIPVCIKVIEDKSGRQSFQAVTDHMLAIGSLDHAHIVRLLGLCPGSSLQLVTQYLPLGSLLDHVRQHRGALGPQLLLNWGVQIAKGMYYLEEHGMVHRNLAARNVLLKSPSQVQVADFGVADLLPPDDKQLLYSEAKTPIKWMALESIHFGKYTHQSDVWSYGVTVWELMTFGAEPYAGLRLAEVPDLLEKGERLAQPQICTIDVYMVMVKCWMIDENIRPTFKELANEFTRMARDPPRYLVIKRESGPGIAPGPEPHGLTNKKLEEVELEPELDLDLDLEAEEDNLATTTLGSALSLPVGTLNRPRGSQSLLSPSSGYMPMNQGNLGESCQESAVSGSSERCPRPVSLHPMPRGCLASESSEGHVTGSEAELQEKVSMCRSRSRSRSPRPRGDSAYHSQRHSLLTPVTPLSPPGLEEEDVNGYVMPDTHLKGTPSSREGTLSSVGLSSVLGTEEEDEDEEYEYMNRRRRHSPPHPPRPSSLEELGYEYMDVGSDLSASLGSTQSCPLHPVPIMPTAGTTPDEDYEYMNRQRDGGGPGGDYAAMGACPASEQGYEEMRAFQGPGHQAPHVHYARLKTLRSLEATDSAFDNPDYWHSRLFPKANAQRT
Just the number please, in %, no unit attached.

| binder | BT474 pHER3 % inhibition / % |
| --- | --- |
| MOR13768 (antibody, human IgG1, kappa, V domains shown, tested as IgG) VH: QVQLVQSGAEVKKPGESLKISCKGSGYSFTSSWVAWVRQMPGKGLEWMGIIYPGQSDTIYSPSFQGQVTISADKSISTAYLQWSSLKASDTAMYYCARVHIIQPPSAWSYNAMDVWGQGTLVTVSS VL: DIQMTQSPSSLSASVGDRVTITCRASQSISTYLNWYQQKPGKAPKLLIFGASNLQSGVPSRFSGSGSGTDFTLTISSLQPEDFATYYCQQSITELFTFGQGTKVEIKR | 70 |
| MOR13755 (antibody, human IgG1, kappa, V domains shown, tested as IgG) VH: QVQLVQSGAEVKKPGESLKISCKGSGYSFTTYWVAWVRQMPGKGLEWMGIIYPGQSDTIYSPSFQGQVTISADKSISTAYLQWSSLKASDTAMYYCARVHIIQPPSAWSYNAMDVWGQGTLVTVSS VL: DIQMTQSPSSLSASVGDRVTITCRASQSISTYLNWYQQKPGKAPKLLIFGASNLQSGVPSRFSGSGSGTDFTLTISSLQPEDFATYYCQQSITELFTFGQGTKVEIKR | 73 |
| MOR13869 (antibody, human IgG1, kappa, V domains shown, tested as IgG) VH: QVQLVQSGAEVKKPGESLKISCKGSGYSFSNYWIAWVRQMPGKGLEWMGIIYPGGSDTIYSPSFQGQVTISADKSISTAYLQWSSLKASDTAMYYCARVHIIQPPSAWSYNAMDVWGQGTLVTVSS VL: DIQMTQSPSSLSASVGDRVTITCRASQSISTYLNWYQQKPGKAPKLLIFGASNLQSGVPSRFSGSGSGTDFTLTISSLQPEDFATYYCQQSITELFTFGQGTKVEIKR | 55 |

Record summary for MOR13762 (antibody, human IgG1, kappa, V domains shown, tested as IgG) VH: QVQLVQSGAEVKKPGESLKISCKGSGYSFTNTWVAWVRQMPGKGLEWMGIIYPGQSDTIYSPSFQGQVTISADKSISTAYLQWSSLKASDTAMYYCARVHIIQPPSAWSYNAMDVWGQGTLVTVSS VL: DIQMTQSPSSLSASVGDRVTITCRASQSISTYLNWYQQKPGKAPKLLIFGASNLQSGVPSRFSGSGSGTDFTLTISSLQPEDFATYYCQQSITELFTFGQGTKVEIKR : reported BT474 pHER3 % inhibition = 41

Record summary for MOR12925 (antibody, human IgG1, kappa, V domains shown, tested as IgG) VH: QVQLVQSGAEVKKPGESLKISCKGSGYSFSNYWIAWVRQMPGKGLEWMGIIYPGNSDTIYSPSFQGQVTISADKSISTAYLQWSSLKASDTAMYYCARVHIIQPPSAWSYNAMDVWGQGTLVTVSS VL: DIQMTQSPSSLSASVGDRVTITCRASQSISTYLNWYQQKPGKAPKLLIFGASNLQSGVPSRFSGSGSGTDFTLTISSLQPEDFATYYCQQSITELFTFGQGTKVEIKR : reported BT474 pHER3 % inhibition = 63
